Biological target: JAK2 (Homo sapiens (Human), UniProt O60674)
Sequence (O60674 849-1124): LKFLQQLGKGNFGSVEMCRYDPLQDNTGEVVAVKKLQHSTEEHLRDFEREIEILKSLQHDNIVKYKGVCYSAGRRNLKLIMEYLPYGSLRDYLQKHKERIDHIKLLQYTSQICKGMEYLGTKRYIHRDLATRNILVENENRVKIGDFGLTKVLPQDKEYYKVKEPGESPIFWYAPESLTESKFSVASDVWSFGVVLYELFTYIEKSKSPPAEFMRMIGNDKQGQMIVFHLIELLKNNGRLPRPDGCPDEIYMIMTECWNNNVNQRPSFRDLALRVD
Test: JAK Caliper Enzyme Assay at 1 mM ATP, JAK2
Assay type: biochemical
Conditions: JAK Caliper enzyme assay
pIC50: −log10 of the molar value.
experimental readout: pIC50

I: N#CC[C@]1(n2ncc(-c3cc(-c4cccc5c4NC(=O)C5)cc4ncccc34)n2)C[C@@H](C#N)C1 [Example 449]
II: N#CC[C@]1(n2ncc(-c3cc(-c4cc(N)ncn4)cc4ncccc34)n2)C[C@@H](C#N)C1 [Example 395]
III: N#CCC1(n2ncc(-c3cc(-c4cnc5cccnn45)cc4ncccc34)n2)CC(C#N)C1 (stereo not shown) [Example 421]
IV: CS(=O)(=O)N1CC(CC#N)(n2ncc(-c3cc(-c4cccc(O)c4)cc4ncccc34)n2)C1 [Example 438]
Q: Arrange items by their pIC50 values in increasing order. List the labels, following the order given in the request.
Ans: I, IV, II, III
(I: 5.19, IV: 5.71, II: 6.11, III: 6.45)

* * *

Biological target: JAK2 (Homo sapiens (Human))
Assay: JAK Caliper Enzyme Assay at 1 mM ATP, JAK2
Format: biochemical
Conditions: JAK Caliper enzyme assay
experimental readout: IC50 (µM)

>  <smiles input>
N#CC[C@]1(n2ncc(-c3cc(-c4cncc(N)n4)cc4ncccc34)n2)C[C@H](C#N)C1

>  <target desc>
JAK2 (Homo sapiens (Human))

>  <readout value>
8.95

$$$$

I: N#CC[C@]1(n2cc(-c3cc(-c4ccc(O)cc4)cc4nccn34)cn2)C[C@@H](C#N)C1
II: CS(=O)(=O)N1CC(CC#N)(n2ncc(-c3cc(-c4cccc(CN)c4)cc4ncccc34)n2)C1
Q: // which entry reports the smaller IC50, I or II ? Choose, then provide that item's label.
Ans: I

* * *

Target: TYK2 (Homo sapiens (Human), UniProt P29597)
Sequence (P29597 897-1176): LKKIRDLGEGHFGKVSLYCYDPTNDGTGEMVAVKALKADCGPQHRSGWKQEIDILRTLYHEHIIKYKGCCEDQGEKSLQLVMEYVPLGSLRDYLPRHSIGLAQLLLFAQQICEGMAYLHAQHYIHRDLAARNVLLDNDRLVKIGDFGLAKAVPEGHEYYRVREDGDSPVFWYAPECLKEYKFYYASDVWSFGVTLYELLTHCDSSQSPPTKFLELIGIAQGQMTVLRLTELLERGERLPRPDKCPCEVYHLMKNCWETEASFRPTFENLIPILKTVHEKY
Test: JAK Caliper Enzyme Assay at 1 mM ATP, TYK2
Assay type: biochemical
Settings: JAK Caliper enzyme assay
experimental readout: IC50 (nM)

Below: 5 molecules and their reported IC50.
>  <smiles input>
CS(=O)(=O)N1CC(CC#N)(n2ncc(-c3cc(-c4cccc(O)c4)cc4ncccc34)n2)C1

>  <target desc>
TYK2 (Homo sapiens (Human), UniProt P29597)

>  <readout value>
107

$$$$
>  <smiles input>
N#CC[C@]1(n2cc(-c3cc(-c4nc(CO)cs4)cc4nccn34)cn2)C[C@@H](C#N)C1

>  <target desc>
TYK2 (Homo sapiens (Human), UniProt P29597)

>  <readout value>
51

$$$$
>  <smiles input>
N#CC[C@]1(n2ncc(-c3cc(-c4cc(N)ncn4)cc4ncccc34)n2)C[C@@H](C#N)C1

>  <target desc>
TYK2 (Homo sapiens (Human), UniProt P29597)

>  <readout value>
78

$$$$
>  <smiles input>
Cc1nc(-c2cc(-c3cnn([C@]4(CC#N)C[C@H](C#N)C4)n3)c3cccnc3c2)ccc1O

>  <target desc>
TYK2 (Homo sapiens (Human), UniProt P29597)

>  <readout value>
30

$$$$
>  <smiles input>
CS(=O)(=O)N1CC(CC#N)(n2ncc(-c3cc(-c4cccc(CN)c4)cc4ncccc34)n2)C1

>  <target desc>
TYK2 (Homo sapiens (Human), UniProt P29597)

>  <readout value>
709

$$$$

P: Cn1cc(-c2cc(-c3cnn(C4(CC#N)CN(CC(F)(F)F)C4)c3)n3ccnc3c2)cn1
Q: N#CC[C@]1(n2ncc(-c3cc(-c4cc[nH]c(=O)c4)cc4ncccc34)n2)C[C@@H](C#N)C1
R: N#CC[C@]1(n2ncc(-c3cc(-c4cnn5cccnc45)cc4ncccc34)n2)C[C@@H](C#N)C1
Q: Reorder the items by IC50, least to greatest. List the labels, following the order given in the request.
Ans: Q, R, P

a: Cn1cc(-c2cn3ncnc3c(-c3cnn(C4(CC#N)CN(S(C)(=O)=O)C4)c3)n2)cn1
b: N#CC[C@]1(n2ncc(-c3cc(-c4cnc5[nH]ccc5n4)cc4ncccc34)n2)C[C@@H](C#N)C1
c: COc1nc(-c2cc(-c3cnn([C@]4(CC#N)C[C@@H](C#N)C4)n3)c3cccnc3c2)ccc1N
d: N#CC[C@]1(n2cc(-c3cc(-c4cn[nH]c4)cc4nccn34)cn2)C[C@@H](C#N)C1
e: Cn1cc(-c2cc3nccnc3c(-c3ccn(C4(CC#N)CN(CC(F)(F)F)C4)n3)n2)cn1
Q: Could you please sort these 5 entries by IC50 from high to low? List the labels, following the order given in the request.
Ans: e, b, a, d, c
(e: 3790 nM, b: 696 nM, a: 281 nM, d: 126 nM, c: 33 nM)

a: N#CC[C@]1(n2ncc(-c3cc(-c4ccc(OCCN)cc4)cc4ncccc34)n2)C[C@H](C#N)C1
b: CS(=O)(=O)N1CC(CC#N)(n2ncc(-c3cc(-c4ccccc4O)cc4ncccc34)n2)C1
Q: Could you please tell me which of these two has the higher IC50: a or b ? Choose, then provide that item's label.
Ans: b
(b: 1210 nM, a: 139 nM)
